# Lookup of reported half-life at 200 μM keyed by entry
# Test system: Porcine Liver Esterase
# METHOD DESCRIPTION: PLE hydrolysis experiment (enzymatic deprotection of POM-protected peptides)
# Format: in vitro ADME
# APPLIED CONDITIONS: pig, 200 μM peptide, pH 7.4, 37° C.
Numbered stars: 1 amine (or outer) side, 2 acyl side, 3 side chain; on linkers, the order of the positions; unused ones are H or OH. Square brackets hold non-standard residues; d marks the D form. Peptide text beside a SMILES is read from it. X1 = C[C@@H](OP(=O)(OCOC(=O)C(C)(C)C)OCOC(=O)C(C)(C)C)[C@H](N[*:1])C(=O)[*:2]; X2 = C[C@@H](CP(=O)(OCOC(=O)C(C)(C)C)OCOC(=O)C(C)(C)C)[C@H](N[*:1])C(=O)[*:2]; His(π-(CH2)8Ph) = N[C@@H](Cc1cncn1CCCCCCCCc1ccccc1)C(=O)O
Write down the numeric answer in h and omit the unit.

Field: example entries. Status: answers known.
[[record]]
molecule = "CC(=O)N1CCC[C@H]1C(=O)N[C@@H](CC(C)C)C(=O)N[C@@H](Cc1c[n+](CCO)cn1CCCCCCCCc1ccccc1)C(=O)N[C@@H](CO)C(=O)N[C@H](C(N)=O)[C@@H](C)OP(=O)(O)OCOC(=O)C(C)(C)C"
tgt = "Porcine Liver Esterase"
unit_string = "h"
recorded_number = 4

[[record]]
molecule = "CC(=O)N1CCC[C@H]1C(=O)N[C@@H](CC(C)C)C(=O)N[C@@H](Cc1cncn1CCCCCCCCc1ccccc1)C(=O)N[C@@H](CO)C(=O)N[C@H](C(N)=O)[C@@H](C)OP(=O)(OCOC(=O)C(C)(C)C)OCOC(=O)C(C)(C)C [Compound A5] (Ac-PL[His(π-(CH2)8Ph)]S[X1]-NH2)"
tgt = "Porcine Liver Esterase"
unit_string = "h"
recorded_number = 1.9

[[record]]
molecule = "CC(=O)N1CCC[C@H]1C(=O)N[C@@H](CC(C)C)C(=O)N[C@@H](Cc1c[nH]cn1)C(=O)N[C@@H](CO)C(=O)N[C@H](C(N)=O)[C@@H](C)CP(=O)(OCOC(=O)C(C)(C)C)OCOC(=O)C(C)(C)C [Compound A3] (Ac-PLHS[X2]-NH2)"
tgt = "Porcine Liver Esterase"
unit_string = "h"
recorded_number = 0.085


Read off the recorded half-life at 200 μM for CC(=O)N1CCC[C@H]1C(=O)N[C@@H](CC(C)C)C(=O)N[C@@H](Cc1c[nH]cn1)C(=O)N[C@@H](CO)C(=O)N[C@H](C(N)=O)[C@@H](C)OP(=O)(OCOC(=O)C(C)(C)C)OCOC(=O)C(C)(C)C [Compound A1, Ac-Pro-Leu-His-Ser-Thr(PO2POM2)-amide] (Ac-PLHS[X1]-NH2)
0.113
